Target of assay: Delta-type opioid receptor (Mus musculus)
Method: Antagonistic activity against Opioid receptor delta 1 using [D-Ala2,D-Leu5]enkephalin in mouse vas deferens preparation
Format: functional
Would you mind labelling by Ke? At or over 4 nM is YES, under is NO.

Solved entries (count: 4):
>  <Input smiles>
Oc1ccc2c3c1O[C@H]1c4[nH]c5ccccc5c4C[C@@]4(O)[C@@H](C2)N(CC2CC2)CC[C@]314

>  <Group>
NO

$$$$
>  <Input smiles>
Cc1ccc2[nH]c3c(c2c1)C[C@@]1(O)[C@H]2Cc4ccc(O)c5c4[C@@]1(CCN2CC1CC1)[C@H]3O5

>  <Group>
YES

$$$$
>  <Input smiles>
Oc1ccc2c3c1O[C@H]1c4oc5ccccc5c4C[C@@]4(O)[C@@H](C2)N(CC2CC2)CC[C@]314

>  <Group>
NO

$$$$
>  <Input smiles>
COc1ccc2[nH]c3c(c2c1)C[C@@]1(O)[C@H]2Cc4ccc(O)c5c4[C@@]1(CCN2CC1CC1)[C@H]3O5

>  <Group>
YES

$$$$

Task item: Does "Oc1ccc2c3c1O[C@H]1c4[nH]c5ccc(F)cc5c4C[C@@]4(O)[C@@H](C2)N(CC2CC2)CC[C@]314" have a reported Ke of at least 4 nM?
Reply: NO

* * *

Target of assay: Kappa-type opioid receptor (Cavia porcellus) (UniProt P41144)
Sequence (P41144 whole entry): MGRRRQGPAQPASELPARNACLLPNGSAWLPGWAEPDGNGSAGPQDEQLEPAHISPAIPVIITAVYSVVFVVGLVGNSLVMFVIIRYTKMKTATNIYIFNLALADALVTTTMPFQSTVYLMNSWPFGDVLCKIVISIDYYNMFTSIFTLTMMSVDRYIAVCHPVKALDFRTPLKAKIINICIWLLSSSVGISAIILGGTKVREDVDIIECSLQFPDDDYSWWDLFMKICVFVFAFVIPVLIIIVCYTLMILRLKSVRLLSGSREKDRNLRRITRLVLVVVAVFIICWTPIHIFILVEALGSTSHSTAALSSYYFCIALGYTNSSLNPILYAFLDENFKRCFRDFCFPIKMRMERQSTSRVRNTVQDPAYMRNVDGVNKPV
Method: Antagonistic activity against Opioid receptor kappa 1 using ethylketazocine in guinea pig ileum preparation
Format: functional, tissue-based
Metric name: Ke

Some solved entries appear below for comparison.
>  <Input smiles>
Oc1ccc2c3c1O[C@H]1c4oc5ccccc5c4C[C@@]4(O)[C@@H](C2)N(CC2CC2)CC[C@]314

>  <Result value>
48 nM

$$$$
>  <Input smiles>
Oc1ccc2c3c1O[C@H]1c4[nH]c5ccc(F)cc5c4C[C@@]4(O)[C@@H](C2)N(CC2CC2)CC[C@]314

>  <Result value>
46 nM

$$$$
>  <Input smiles>
Oc1ccc2c3c1O[C@H]1c4[nH]c5ccccc5c4C[C@@]4(O)[C@@H](C2)N(CC2CC2)CC[C@]314

>  <Result value>
58 nM

$$$$

Task item: Consider the molecule "COc1ccc2[nH]c3c(c2c1)C[C@@]1(O)[C@H]2Cc4ccc(O)c5c4[C@@]1(CCN2CC1CC1)[C@H]3O5" and give its recorded Ke.
Reply: 13 nM
